Taken from patent US5773423A.

- Target or system: A1 receptors from rat brain membranes (Rattus norvegicus)
- Construct: Rat cerebral cortical and striatal membranes were prepared; from tissue; host or cells: rat brain (cerebral cortical) membranes
- Sequence (P25099 1-326): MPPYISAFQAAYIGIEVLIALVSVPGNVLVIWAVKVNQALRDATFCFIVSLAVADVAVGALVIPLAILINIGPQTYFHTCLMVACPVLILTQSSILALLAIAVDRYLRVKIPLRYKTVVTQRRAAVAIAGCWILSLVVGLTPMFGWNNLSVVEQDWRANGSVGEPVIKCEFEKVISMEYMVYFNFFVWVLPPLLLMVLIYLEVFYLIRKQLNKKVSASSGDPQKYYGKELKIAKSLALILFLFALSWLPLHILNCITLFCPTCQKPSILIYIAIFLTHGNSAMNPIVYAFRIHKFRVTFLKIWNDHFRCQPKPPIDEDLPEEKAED
- Experimental protocol: biochemical
- Format: binding
- Test context: rat brain membranes, displacement of [3H]PIA (or [3H]CHA); read-out: A1 affinity Ki
So basically: is Ki under 300 nM? Then true (1). Not under? Then false (0).

Example results:
- Compound: "CCCn1c(=O)[nH]c2nc(C3CCCC3)[nH]c2c1=O [Compound 129, 8-cyclopentyl-1-propylX, reference compound]"
  Group: "true (1)"
- Compound: "NC(=O)[C@H]1O[C@@H](n2cnc3c(NCc4ccccc4)ncnc32)[C@H](O)[C@@H]1O"
  Group: "false (0)"
- Compound: "CNC(=O)[C@H]1O[C@@H](n2cnc3c(NCc4cccc(S(=O)(=O)O)c4)ncnc32)[C@H](O)[C@@H]1O"
  Group: "false (0)"
- Compound: "CNC(=O)[C@H]1O[C@@H](n2cnc3c(NCc4cccc(C)c4)ncnc32)[C@H](O)[C@@H]1O"
  Group: "false (0)"

Lab note: next compound to report on.
Exercise: Below 300 nM on Ki? Entry [O-][n+]1cnc2c(ncn2[C@@H]2O[C@H](CO)[C@@H](O)[C@H]2O)c1NCc1ccccc1 [Compound 36, N^6 -benzyladenosine-N^1 -oxide]
Key: false (0)

----------
- Target or system: A2 receptors from rat striatal membranes (Rattus norvegicus, UniProt P30543)
- Construct: Rat cerebral cortical and striatal membranes were prepared; from tissue; host or cells: rat striatal membranes
- Sequence (P30543 whole entry): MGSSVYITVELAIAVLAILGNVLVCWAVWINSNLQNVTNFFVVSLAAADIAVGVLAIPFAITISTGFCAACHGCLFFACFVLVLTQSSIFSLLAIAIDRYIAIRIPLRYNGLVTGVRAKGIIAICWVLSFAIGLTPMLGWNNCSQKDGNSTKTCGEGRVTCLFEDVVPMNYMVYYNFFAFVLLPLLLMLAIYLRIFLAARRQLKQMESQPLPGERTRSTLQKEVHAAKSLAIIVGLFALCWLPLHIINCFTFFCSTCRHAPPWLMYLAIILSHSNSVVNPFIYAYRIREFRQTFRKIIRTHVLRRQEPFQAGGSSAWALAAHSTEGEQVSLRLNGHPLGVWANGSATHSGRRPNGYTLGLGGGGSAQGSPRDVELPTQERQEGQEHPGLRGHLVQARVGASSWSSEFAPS
- Experimental protocol: Radioligand binding at A2 (A2a) receptors, displacement of [3H]CGS 21680 (or [3H]NECA with 50 nM CPA) from rat striatal membranes
- Test context: read-out: A2 percent displacement
Endpoint name: inhibition at 100 µM (%)
# number only, unit % dropped from output

Known inhibition at 100 µM results, listed for orientation:
- Compound: "Cn1c(=O)[nH]c2c(ncn2C)c1=O [Compound 105, 1,9-dimethylX, reference compound]"
  inhibition at 100 µM, %: 6
- Compound: "CNC(=O)[C@H]1O[C@@H](n2cnc3c(=O)[nH]cnc32)[C@H](O)[C@@H]1O [Compound 90, inosine-5'-N-methyluronamide]"
  inhibition at 100 µM, %: 6.2
- Compound: "CNC(=O)[C@H]1O[C@@H](n2cnc3c(NCc4cccc(NC(C)=O)c4)ncnc32)[C@H](O)[C@@H]1O"
  inhibition at 100 µM, %: 12.5

Exercise: Quick one: inhibition at 100 µM for Cn1c(=O)c2ncn(C)c2n(C)c1=O [Compound 113, 1,3,9-trimethylX, reference compound] ?
Key: 14.4
